Target: IRAK4 (Homo sapiens, UniProt Q9NWZ3)
Sequence (Q9NWZ3 whole entry): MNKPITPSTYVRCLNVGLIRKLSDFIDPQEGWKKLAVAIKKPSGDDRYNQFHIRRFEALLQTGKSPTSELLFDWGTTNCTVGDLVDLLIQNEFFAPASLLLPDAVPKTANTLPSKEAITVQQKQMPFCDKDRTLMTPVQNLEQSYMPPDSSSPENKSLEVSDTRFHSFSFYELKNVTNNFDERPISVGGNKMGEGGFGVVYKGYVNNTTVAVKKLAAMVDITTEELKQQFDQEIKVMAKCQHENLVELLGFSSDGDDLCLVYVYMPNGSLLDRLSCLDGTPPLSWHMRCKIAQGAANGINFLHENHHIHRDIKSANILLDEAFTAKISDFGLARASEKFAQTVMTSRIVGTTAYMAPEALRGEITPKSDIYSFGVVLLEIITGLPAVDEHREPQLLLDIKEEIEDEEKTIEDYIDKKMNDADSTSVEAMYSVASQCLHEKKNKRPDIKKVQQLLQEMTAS
Assay: IRAK4 degradation in OCI-LY10 (MSD, Meso Scale Discovery)
Type: cell-based
Design: endogenous in cells; host or cells: OCI-LY10
Details: OCI-LY10 cells, 24 h

| compound | DC50 |
| --- | --- |
| COc1cc(-c2ccc(CCCCCCCCCNC[C@H]3CC[C@H](n4cc(NC(=O)c5cnn6ccc(N7C[C@H]8C[C@@H]7CO8)nc56)c(C(F)F)n4)CC3)cc2)ccc1C(=O)Nc1ccc(=O)n(CC(=O)O)c1 [Compound I-62] | > 10 µM |
| O=C(O)Cn1cc(NC(=O)[C@H]2CCCN(c3cncc(NCCOCCOCCOCCOCCNC[C@H]4CC[C@H](n5cc(NC(=O)c6cnn7ccc(N8C[C@H]9C[C@@H]8CO9)nc67)c(C(F)F)n5)CC4)c3)C2)ccc1=O [Compound I-4] | > 10 µM |
| CCOC(=O)Cn1cc(NC(=O)c2cccc3c2ccn3CCCCCCCCCNC[C@H]2CC[C@H](n3cc4cc(NC(=O)c5cccc(C(F)(F)F)n5)c(C(C)(C)O)cc4n3)CC2)ccc1=O [Compound I-69] | 0.1 to 1 µM |
